Origin of measurements: ChEMBL document CHEMBL1806488

Please go through the items and note down their CC50.
System: HEL
measurement protocol: Cytotoxicity against human HEL cells by colorimetric formazan-based MTS assay
Type: cell-based

Examples with answers:
Cc1cn([C@@H]2O[C@H](CO)[C@@H](O)C2(F)F)c(=O)[nH]c1=O
100 µM
O=c1[nH]c(=O)n([C@H]2C[C@H](O)[C@@H](CO)O2)cc1/C=C/Br
512 µM
O=c1[nH]c(=O)n([C@@H]2O[C@H](CO)[C@@H](O)C2(F)F)cc1I
> 100 µM
C[C@H](NP(=O)(OC[C@H]1O[C@@H](n2cc(Br)c(=O)[nH]c2=O)C(F)(F)[C@@H]1O)Oc1ccccc1)C(=O)OCc1ccccc1 (stereo partly specified)
≥ 50 µM
Nc1nc2c(ncn2COCCO)c(=O)[nH]1
> 400 µM

Provide the reported CC50 of each entry below, same order.
1. C[C@H](NP(=O)(OC[C@H]1O[C@@H](n2cc(Cl)c(=O)[nH]c2=O)C(F)(F)[C@@H]1O)Oc1ccccc1)C(=O)OCc1ccccc1 (stereo partly specified)
2. COC(=O)[C@H](C)NP(=O)(OC[C@H]1O[C@@H](n2cc(I)c(=O)[nH]c2=O)C(F)(F)[C@@H]1O)Oc1ccccc1 (stereo partly specified)
3. COC(=O)[C@H](C)NP(=O)(OC[C@H]1O[C@@H](n2cc(I)c(=O)[nH]c2=O)C(F)(F)[C@@H]1O)Oc1cccc2ccccc12 (stereo partly specified)

Data returned:
["≥ 100 µM", "51 µM", "≥ 100 µM"]

Value sought for every listed compound: CC50.
1. C[C@H](NP(=O)(OC[C@H]1O[C@@H](n2cc(I)c(=O)[nH]c2=O)C(F)(F)[C@@H]1O)Oc1cccc2ccccc12)C(=O)OCc1ccccc1 (stereo partly specified)
2. O=c1[nH]c(=O)n([C@@H]2O[C@H](CO)[C@@H](O)C2(F)F)cc1Br
3. O=c1[nH]c(=O)n([C@@H]2O[C@H](CO)[C@@H](O)C2(F)F)cc1Cl

Data returned:
1. 49 µM
2. > 100 µM
3. > 100 µM
